- STUDY_SYSTEM: human P2X3 receptor (Homo sapiens, UniProt P56373)
- Construct: expressed in transfected cells; host or cells: CHO-K1
- ASSAY: Calcium luminescence (photoprotein) assay in CHO-K1 cells co-expressing human P2X3 receptor, α,β-Met-ATP stimulation, FLEXSTATION readout
- Type: cell-based
- SETTINGS: Table 6; human P2X3 receptor antagonist activity, CHO-K1 cells, α,β-Met-ATP; read-out: h-P2X3 IC50
This section presents compounds with their documented log10(IC50) values.
Note the log scale: values are log10 of IC50 expressed in nM.

COCC1CN2C(=O)N(Cc3ccc(Cl)cc3)c3cc(N4CCOCC4)cnc3C2=N1 (centres unmarked) [Example 11] = 2.55
COc1ccc(CN2C(=O)N3CC(COC(C)(C)C)N=C3c3ncc(N4CCOCC4)cc32)cc1 (centres unmarked) [Example 57] = 3.52
COc1cc(CN2C(=O)N3CC(CC(C)C)N=C3c3ncc(N4CCOCC4)cc32)cc(OC)c1 (centres unmarked) [Example 22] = 2.16
CC(C)CCC1CN2C(=O)N(Cc3ccc(Cl)cc3)c3cc(N4CCOCC4)cnc3C2=N1 (centres unmarked) [Example 62] = 2.86
O=C1N(Cc2ccc(Cl)cc2)c2cc(N3CCOCC3)cnc2C2=NCC(C3CCCCC3)N12 (centres unmarked) [Example 26] = 2.67

Task item: Item under review: COCC1CN=C2c3ncc(N4CCOCC4)cc3N(Cc3ccc(Cl)cc3)C(=O)N21 (centres unmarked) [Example 13] . Reported log10(IC50)?
Reply: 3.10

Task item: Item under review: COCCC1CN2C(=O)N(Cc3ccc(OC)cc3)c3cc(N4CCOCC4)cnc3C2=N1 (centres unmarked) [Example 65] . Reported log10(IC50)?
Reply: 3.25

Task item: Item under review: COc1cc(CN2C(=O)N3C(=NCC3CC(C)C)c3ncc(N4CCOCC4)cc32)cc(OC)c1 (centres unmarked) [Example 35] . Reported log10(IC50)?
Reply: 2.90

----------
- STUDY_SYSTEM: human P2X3 receptor (Homo sapiens)
- Construct: expressed in transfected cells; host or cells: CHO-K1
- Sequence (P56373 1-397): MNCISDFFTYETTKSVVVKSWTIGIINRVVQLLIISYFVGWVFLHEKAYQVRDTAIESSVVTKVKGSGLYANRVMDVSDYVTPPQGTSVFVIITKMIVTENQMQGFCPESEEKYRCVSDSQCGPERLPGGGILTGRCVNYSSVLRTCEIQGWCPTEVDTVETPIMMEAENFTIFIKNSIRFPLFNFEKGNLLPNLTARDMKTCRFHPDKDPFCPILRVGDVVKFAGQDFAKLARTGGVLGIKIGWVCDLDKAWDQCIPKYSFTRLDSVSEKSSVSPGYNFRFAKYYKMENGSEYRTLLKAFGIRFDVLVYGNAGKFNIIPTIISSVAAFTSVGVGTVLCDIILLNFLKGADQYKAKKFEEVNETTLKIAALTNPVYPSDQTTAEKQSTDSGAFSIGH
- ASSAY: Calcium luminescence (photoprotein) assay in CHO-K1 cells co-expressing human P2X3 receptor, α,β-Met-ATP stimulation, FLEXSTATION readout
- Assay type: cell-based
- SETTINGS: Table 6; human P2X3 receptor antagonist activity, CHO-K1 cells, α,β-Met-ATP; read-out: h-P2X3 IC50
VALUE_TYPE: IC50 (nM)
Express the result in nM but write the number alone.

Solved cases (5 shown):
COc1cc(CN2C(=O)N3CC(C(C)C)N=C3c3ncc(C(=O)N4CCOCC4)cc32)cc(OC)c1 (stereo not shown) = 1100
COc1ccc(CN2C(=O)N3CC(C(C)C)N=C3c3ncc(N4CCC(CO)CC4)cc32)cc1 (stereo not shown) = 1140
COc1ccc(CN2C(=O)N3CC(C4CCC4)N=C3c3ncc(N4CCOCC4)cc32)cc1 (stereo not shown) = 219
COc1cc(CN2C(=O)N3C(=NCC3C)c3ncc(N4CCOCC4)cc32)cc(OC)c1 (stereo not shown) = 1190
CCC1CN=C2c3ncc(N4CCOCC4)cc3N(Cc3cc(OC)cc(OC)c3)C(=O)N21 (stereo not shown) = 504

Task item: Item under review: COc1cc(CN2C(=O)N3CC(C(C)C)N=C3c3ncc(NC4CCOCC4)cc32)cc(OC)c1 (stereo not shown) . Reported IC50?
Reply: 872

Task item: Item under review: CC(C)CC1C(=O)N=C2c3ncc(N4CCOCC4)cc3N(Cc3ccc(Cl)cc3)C(=O)N21 (stereo not shown) . Reported IC50?
Reply: 109

Task item: Item under review: CCC1CN2C(=O)N(Cc3ccc(OC)cc3)c3cc(N4CC(COC)C4)cnc3C2=N1 (stereo not shown) . Reported IC50?
Reply: 5140

Task item: Item under review: O=C1N2CC(C3CC3)N=C2c2ncc(N3CCOCC3)cc2N1Cc1ccc(Cl)cc1 (stereo not shown) . Reported IC50?
Reply: 241

Task item: Item under review: COc1ccc(CN2C(=O)N3CC(c4ccccc4)N=C3c3ncc(N4CCOCC4)cc32)cc1 (stereo not shown) . Reported IC50?
Reply: 375

----------
- STUDY_SYSTEM: human P2X3 receptor (Homo sapiens, UniProt P56373)
- Construct: expressed in transfected cells; host or cells: CHO-K1
- Sequence (P56373 1-397): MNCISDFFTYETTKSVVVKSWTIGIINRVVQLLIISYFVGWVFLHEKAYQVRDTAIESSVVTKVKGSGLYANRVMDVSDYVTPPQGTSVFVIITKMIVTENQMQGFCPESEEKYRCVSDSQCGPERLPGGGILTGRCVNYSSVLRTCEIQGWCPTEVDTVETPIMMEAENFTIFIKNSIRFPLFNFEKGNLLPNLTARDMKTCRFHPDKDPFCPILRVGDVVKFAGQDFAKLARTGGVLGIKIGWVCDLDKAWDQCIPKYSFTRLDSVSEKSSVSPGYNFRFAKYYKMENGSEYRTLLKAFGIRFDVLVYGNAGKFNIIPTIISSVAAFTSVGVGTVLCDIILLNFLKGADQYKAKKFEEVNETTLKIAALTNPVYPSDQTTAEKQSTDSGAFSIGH
- ASSAY: Calcium luminescence (photoprotein) assay in CHO-K1 cells co-expressing human P2X3 receptor, α,β-Met-ATP stimulation, FLEXSTATION readout
- Type: cell-based
- SETTINGS: Table 6; human P2X3 receptor antagonist activity, CHO-K1 cells, α,β-Met-ATP; read-out: h-P2X3 IC50
VALUE_TYPE: pIC50
Worth noting: pIC50 values are minus log10 of concentrations stated in mol/L.

Solved cases (8 shown):
COc1ccc(CN2C(=O)N3CC(CC(F)(F)F)N=C3c3ncc(N4CCOCC4)cc32)cc1 (stereo not shown) = 6.46
COc1ccc(CN2C(=O)N3CC(CC(C)C)N=C3c3ncc(N4CCOCC4)cc32)cc1 (stereo not shown) = 6.17
CC(C)CCC1CN=C2c3ncc(N4CCOCC4)cc3N(Cc3ccc(Cl)cc3)C(=O)N21 (stereo not shown) = 6.52
O=C1N2CC3(CCOCC3)N=C2c2ncc(N3CCOCC3)cc2N1Cc1ccc(Cl)cc1 = 5.98
CC(C)C1CN2C(=O)N(Cc3ccc(Cl)cc3)c3cc(N4CC5(COC5)C4)cnc3C2=N1 (stereo not shown) = 5.85
CC(C)CC1CN=C2c3ncc(N4CCOCC4)cc3N(Cc3ccc(Cl)cc3)C(=O)N21 (stereo not shown) = 6.64
COc1ccc(CN2C(=O)N3CC(C(C)C)N=C3c3ncc(N4CC5(COC5)C4)cc32)cc1 (stereo not shown) = 5.26
COc1ccc(CN2C(=O)N3CC(C(C)C)N=C3c3ncc(N4CCC(N(C)C)CC4)cc32)cc1 (stereo not shown) = 5.14

Task item: Item under review: COc1ccc(CN2C(=O)N3C(=NCC3CC(C)C)c3ncc(N4CCOCC4)cc32)cc1 (stereo not shown) . Reported pIC50?
Reply: 5.69

Task item: Item under review: O=C1N(Cc2ccc(Cl)cc2)c2cc(N3CCOCC3)cnc2C2=NCC3(CCOCC3)N12 . Reported pIC50?
Reply: 5.48

Task item: Item under review: COc1cc(CN2C(=O)N3C(=NCC3c3ccccc3)c3ncc(N4CCOCC4)cc32)cc(OC)c1 (stereo not shown) . Reported pIC50?
Reply: 6.70

Task item: Item under review: CCC1CN2C(=O)N(Cc3ccc(OC)cc3)c3cc(N4CCOCC4)cnc3C2=N1 (stereo not shown) . Reported pIC50?
Reply: 5.90

----------
- STUDY_SYSTEM: human P2X3 receptor (Homo sapiens, UniProt P56373)
- Construct: expressed in transfected cells; host or cells: CHO-K1
- ASSAY: Calcium luminescence (photoprotein) assay in CHO-K1 cells co-expressing human P2X3 receptor, α,β-Met-ATP stimulation, FLEXSTATION readout
- Format: cell-based
- SETTINGS: Table 7; human P2X3 receptor antagonist activity, CHO-K1 cells, α,β-Met-ATP; read-out: h-P2X3 IC50
- Description: The assay for the human purinergic P2X3 receptor has been adapted to the internal screening instrumentation using the FLEXSTATION as reader and a photoprotein as luminescent readout. […] After 4 minutes a second injection of 50 μL/well of 5× α,β-Met-ATP in Tyrode's buffer (α,β-Met-ATP: from Tocris (cat. no 3209), was dissolved at 100 mM in water and stored in aliquots at −20° C.) was performed and the signal of the emitted luminescence was recorded by FLEXSTATION III (Molecular Devices). […]
Please use Fulfilled for IC50 under 700 nM and Not fulfilled for everything else, ties included.

Study these solved cases before continuing.
O=c1n(Cc2ccc(Cl)cc2)c2cc(N3CCOCC3)cnc2c2nnc(Cc3cccnc3)n12 = Fulfilled
COc1ccc(Cn2c(=O)n3cc(CC(C)C)nc3c3ncc(N4CCOCC4)cc32)cc1 = Fulfilled
CCn1nccc1-c1nnc2c3ncc(N4CCOCC4)cc3n(Cc3ccc(Cl)cc3)c(=O)n12 = Not fulfilled
CCn1ccc(-c2nnc3c4ncc(N5CCOCC5)cc4n(Cc4ccc(Cl)cc4)c(=O)n23)n1 = Fulfilled
Cc1c(C(C)C)nc2c3ncc(C(=O)NCCO)cc3n(Cc3ccc(Cl)cc3)c(=O)n12 = Not fulfilled
COc1ccc(Cn2c(=O)n3c(CC(C)C)nnc3c3ncc(N4CCOCC4)cc32)cc1 = Not fulfilled
CC(C)Cc1cn2c(=O)n(Cc3c(F)cc(Cl)cc3F)c3cc(N4CCOCC4)cnc3c2n1 = Not fulfilled
CC(C)Cc1cn2c(=O)n(Cc3ccc(Cl)cc3)c3cc(N4CC5(COC5)C4)cnc3c2n1 = Not fulfilled
Cc1c(C(C)C)nc2c3ncc(N4CCOCC4)cc3n(Cc3ccc(Cl)cc3)c(=O)n12 = Fulfilled
COc1cc(Cn2c(=O)n3c(C)nnc3c3ncc(N4CCOCC4)cc32)cc(OC)c1 = Not fulfilled

Task item: Hello, I'm reviewing records and need to know if IC50 of COCC1CN(c2cnc3c(c2)n(Cc2cc(OC)cc(OC)c2)c(=O)n2c(C)c(C(C)C)nc32)C1 is below 700 nM. Could you check?
Reply: Fulfilled
